- Test system: Enterococcus faecalis ATCC29212
- procedure.details: MIC, microbroth dilution (NCCLS)
- Assay type: cell-based
- assay.setup: rifS strain, BHI Broth, 37° C., read-out: Antimicrobial activity (MIC)
For each entry below, report its MIC value.

Give its MIC value. Item: COc1c(N2CCC(C(C)NC3CCN(C4=C5NC(=O)/C(C)=C\C=C\[C@H](C)[C@H](O)[C@@H](C)[C@@H](O)[C@@H](C)[C@H](OC(C)=O)[C@H](C)[C@@H](OC)/C=C/O[C@@]6(C)Oc7c(C)c(O)c(c(c7C6=O)C4=O)C5=O)CC3)C2)c(F)cc2c(=O)c(C(=O)O)cn(C3CC3)c12 (stereo partly drawn) [Example 39]
2 to 32 µg/mL

Suppose we examine the molecule COc1c(N2CCC(NC3CCN(C4=C5NC(=O)/C(C)=C\C=C\[C@H](C)[C@H](O)[C@@H](C)[C@@H](O)[C@@H](C)[C@H](OC(C)=O)[C@H](C)[C@@H](OC)/C=C/O[C@@]6(C)Oc7c(C)c(O)c(c(c7C6=O)C4=O)C5=O)CC3)C2)c(F)cc2c(=O)c(C(=O)O)cn(C3CC3)c12 (mixture of isomers) [Example 30] ; what MIC value has been reported?
2 to 32 µg/mL

Recorded MIC of CO[C@H]1/C=C/O[C@@]2(C)Oc3c(C)c(O)c4c(c3C2=O)C(=O)C(N[C@@H]2CCN(c3cc5c(cc3F)c(=O)c(C(=O)O)cn5C3CC3)C2)=C(NC(=O)/C(C)=C\C=C\[C@H](C)[C@H](O)[C@@H](C)[C@@H](O)[C@@H](C)[C@H](OC(C)=O)[C@@H]1C)C4=O [Example 8] , please.
2 to 32 µg/mL

---

- Tested on: Enterococcus faecalis ATCC29212
- procedure.details: MIC, microbroth dilution (NCCLS)
- Type: cell-based
- assay.setup: rifS strain, BHI Broth, 37° C., read-out: Antimicrobial activity (MIC)
measure.name: MIC

Item: CO[C@H]1/C=C/O[C@@]2(C)Oc3c(C)c(O)c4c(O)c(c(/C=N/N5CCN(C)CC5)c(O)c4c3C2=O)NC(=O)/C(C)=C\C=C\[C@H](C)[C@H](O)[C@@H](C)[C@@H](O)[C@@H](C)[C@H](OC(C)=O)[C@@H]1C [rifampin, reference compound] Test system: Enterococcus faecalis ATCC29212 Read-out: MIC Value: ?
1 µg/mL

For the record COc1c(N2CC(NC(=O)C3CN(C4=C5NC(=O)/C(C)=C\C=C\[C@H](C)[C@H](O)[C@@H](C)[C@@H](O)[C@@H](C)[C@H](OC(C)=O)[C@H](C)[C@@H](OC)/C=C/O[C@@]6(C)Oc7c(C)c(O)c(c(c7C6=O)C4=O)C5=O)C3)C2)c(F)cc2c(=O)c(C(=O)O)cn(C3CC3)c12 [Example 47] , what value of MIC is listed for Enterococcus faecalis ATCC29212?
2 to 32 µg/mL

Checklist item: MIC tested on Enterococcus faecalis ATCC29212, entry CO[C@H]1/C=C/O[C@@]2(C)Oc3c(C)c(O)c4c(O)c(c(CN[C@@H]5CCN(c6cc7c(cc6F)c(=O)c(C(=O)O)cn7C6CC6)C5)c(O)c4c3C2=O)NC(=O)/C(C)=C\C=C\[C@H](C)[C@H](O)[C@@H](C)[C@@H](O)[C@@H](C)[C@H](OC(C)=O)[C@@H]1C [Example 15] , value?
2 to 32 µg/mL

Form field - read-out: MIC; system: Enterococcus faecalis ATCC29212; submitted item: CO[C@H]1/C=C/O[C@@]2(C)Oc3c(C)c(O)c4c(c3C2=O)C(=O)C(N2CCC(NC3CCN(c5c(F)cc6c(=O)c(C(=O)O)cn(C7CC7)c6c5Cl)C3)CC2)=C(NC(=O)/C(C)=C\C=C\[C@H](C)[C@H](O)[C@@H](C)[C@@H](O)[C@@H](C)[C@H](OC(C)=O)[C@@H]1C)C4=O (mixture of isomers) [Example 29]
2 to 32 µg/mL

Param readout= MIC; system= Enterococcus faecalis ATCC29212; entry= CO[C@H]1/C=C/O[C@@]2(C)Oc3c(C)c(O)c4c(c3C2=O)C(=O)C(N2CCC(N(C)C3(C5CCN(c6nc7c(cc6F)c(=O)c(C(=O)O)cn7-c6ccc(F)cc6F)C5)CC3)CC2)=C(NC(=O)/C(C)=C\C=C\[C@H](C)[C@H](O)[C@@H](C)[C@@H](O)[C@@H](C)[C@H](OC(C)=O)[C@@H]1C)C4=O (mixture of isomers) [Example 58] ; returns value.
2 to 32 µg/mL

Give MIC (Enterococcus faecalis ATCC29212) of the following molecule: CO[C@H]1/C=C/O[C@@]2(C)Oc3c(C)c(O)c4c(c3C2=O)C(=O)C(N2CCC(NCC3CCN(c5c(F)cc6c(=O)c(C(=O)O)cn(C7CC7)c6c5Cl)C3)CC2)=C(NC(=O)/C(C)=C\C=C\[C@H](C)[C@H](O)[C@@H](C)[C@@H](O)[C@@H](C)[C@H](OC(C)=O)[C@@H]1C)C4=O (mixture of isomers) [Example 36]
2 to 32 µg/mL

---

- Tested on: Staphylococcus aureus ATCC29213 rpoB^D417Y
- procedure.details: microbe, parasite or virus in culture
- Format: cell-based
- assay.setup: ATCC29213, read-out: Antimicrobial activity (MIC)
Give measured MIC for each item. Keep answers brief.

Which MIC reading was recorded for the compound CO[C@H]1/C=C/O[C@@]2(C)Oc3c(C)c(O)c4c(c3C2=O)C(=O)C(N2CC(C(=O)NC3CCN(c5c(F)cc6c(=O)c(C(=O)O)cn(C7CC7)c6c5Cl)C3)C2)=C(NC(=O)/C(C)=C\C=C\[C@H](C)[C@H](O)[C@@H](C)[C@@H](O)[C@@H](C)[C@H](OC(C)=O)[C@@H]1C)C4=O (mixture of isomers) ?
0.06 to 32 µg/mL

Endpoint output: MIC of CO[C@H]1/C=C/O[C@@]2(C)Oc3c(C)c(O)c4c(O)c(c(CNC5CCN(c6c(F)cc7c(=O)c(C(=O)O)cn(C8CC8)c7c6Cl)C5)c(O)c4c3C2=O)NC(=O)/C(C)=C\C=C\[C@H](C)[C@H](O)[C@@H](C)[C@@H](O)[C@@H](C)[C@H](OC(C)=O)[C@@H]1C (mixture of isomers) . Value?
0.06 to 32 µg/mL

Can you look up the measured MIC of COc1c(N2CCC(NC3=C4NC(=O)/C(C)=C\C=C\[C@H](C)[C@H](O)[C@@H](C)[C@@H](O)[C@@H](C)[C@H](OC(C)=O)[C@H](C)[C@@H](OC)/C=C/O[C@@]5(C)Oc6c(C)c(O)c(c(c6C5=O)C3=O)C4=O)C2)c(F)cc2c(=O)c(C(=O)O)cn(C3CC3)c12 (mixture of isomers) for me?
0.06 to 32 µg/mL

---

- Tested on: Staphylococcus aureus ATCC29213
- procedure.details: MIC, microbroth dilution (NCCLS)
- Type: cell-based
- assay.setup: rifS strain, Cation-Adjusted Mueller-Hinton Broth, 37° C., read-out: Antimicrobial activity (MIC)
Please respond with reported MIC for every item in the list.

Look up MIC for this compound: CO[C@H]1/C=C/O[C@@]2(C)Oc3c(C)c(O)c4c(c3C2=O)C(=O)C(N2CCC(NCC3CCN(c5nc6c(cc5F)c(=O)c(C(=O)O)cn6-c5ccc(F)cc5F)C3)CC2)=C(NC(=O)/C(C)=C\C=C\[C@H](C)[C@H](O)[C@@H](C)[C@@H](O)[C@@H](C)[C@H](OC(C)=O)[C@@H]1C)C4=O (mixture of isomers)
0.004 to 0.5 µg/mL

I would be grateful if you could share the reported MIC for COc1c(N2CCC(C3(N(C)C4CCN(C5=C6NC(=O)/C(C)=C\C=C\[C@H](C)[C@H](O)[C@@H](C)[C@@H](O)[C@@H](C)[C@H](OC(C)=O)[C@H](C)[C@@H](OC)/C=C/O[C@@]7(C)Oc8c(C)c(O)c(c(c8C7=O)C5=O)C6=O)CC4)CC3)C2)c(F)cc2c(=O)c(C(=O)O)cn(C3CC3)c12 (mixture of isomers) .
0.004 to 0.5 µg/mL

# input compound: CO[C@H]1/C=C/O[C@@]2(C)Oc3c(C)c(O)c4c(c3C2=O)C(=O)C(N[C@@H]2CCN(c3cc5c(cc3F)c(=O)c(C(=O)O)cn5C3CC3)C2)=C(NC(=O)/C(C)=C\C=C\[C@H](C)[C@H](O)[C@@H](C)[C@@H](O)[C@@H](C)[C@H](OC(C)=O)[C@@H]1C)C4=O ; wanted: its MIC
0.004 to 0.5 µg/mL

---

- System: Staphylococcus aureus EN1252a gyrA^S84L grlA^S80F
- procedure.details: microbe, parasite or virus in culture
- Format: cell-based
- assay.setup: read-out: Antimicrobial activity (MIC)
- Description: Representative compounds were assayed for antimicrobial activity as follows: Minimum Inhibitory Concentrations (“MICs”) were determined by the microbroth dilution method as per NCCLS guidelines (National Committee for Clinical Laboratory Standards. 2000. Methods for dilution antimicrobial susceptibility tests for bacteria that grow aerobically, 5th ed. M7-A5. National Committee for Clinical Laboratory Standards, Wayne, Pa.), except that all growth incubations were conducted at 37° C. […]
measure.name: MIC

Name the recorded MIC for COc1c(N2CCN(C3=C4NC(=O)/C(C)=C\C=C\[C@H](C)[C@H](O)[C@@H](C)[C@@H](O)[C@@H](C)[C@H](OC(C)=O)[C@H](C)[C@@H](OC)/C=C/O[C@@]5(C)Oc6c(C)c(O)c(c(c6C5=O)C3=O)C4=O)C(C)C2)c(F)cc2c(=O)c(C(=O)O)cn(C3CC3)c12 (some centres unmarked) [Example 10] .
0.004 to 0.5 µg/mL

Sample CO[C@H]1/C=C/O[C@@]2(C)Oc3c(C)c(O)c4c(O)c(c(CN[C@@H]5CCN(c6cc7c(cc6F)c(=O)c(C(=O)O)cn7C6CC6)C5)c(O)c4c3C2=O)NC(=O)/C(C)=C\C=C\[C@H](C)[C@H](O)[C@@H](C)[C@@H](O)[C@@H](C)[C@H](OC(C)=O)[C@@H]1C [Example 15] — what was its MIC?
0.004 to 0.5 µg/mL
